Molecular target: T1, human CD45RC (human, UniProt P08575 26-1306)
T1 construct: Native protein on human blood leukocytes / PBMC / T cells of healthy volunteers; also called hCD45RC
T1 sequence: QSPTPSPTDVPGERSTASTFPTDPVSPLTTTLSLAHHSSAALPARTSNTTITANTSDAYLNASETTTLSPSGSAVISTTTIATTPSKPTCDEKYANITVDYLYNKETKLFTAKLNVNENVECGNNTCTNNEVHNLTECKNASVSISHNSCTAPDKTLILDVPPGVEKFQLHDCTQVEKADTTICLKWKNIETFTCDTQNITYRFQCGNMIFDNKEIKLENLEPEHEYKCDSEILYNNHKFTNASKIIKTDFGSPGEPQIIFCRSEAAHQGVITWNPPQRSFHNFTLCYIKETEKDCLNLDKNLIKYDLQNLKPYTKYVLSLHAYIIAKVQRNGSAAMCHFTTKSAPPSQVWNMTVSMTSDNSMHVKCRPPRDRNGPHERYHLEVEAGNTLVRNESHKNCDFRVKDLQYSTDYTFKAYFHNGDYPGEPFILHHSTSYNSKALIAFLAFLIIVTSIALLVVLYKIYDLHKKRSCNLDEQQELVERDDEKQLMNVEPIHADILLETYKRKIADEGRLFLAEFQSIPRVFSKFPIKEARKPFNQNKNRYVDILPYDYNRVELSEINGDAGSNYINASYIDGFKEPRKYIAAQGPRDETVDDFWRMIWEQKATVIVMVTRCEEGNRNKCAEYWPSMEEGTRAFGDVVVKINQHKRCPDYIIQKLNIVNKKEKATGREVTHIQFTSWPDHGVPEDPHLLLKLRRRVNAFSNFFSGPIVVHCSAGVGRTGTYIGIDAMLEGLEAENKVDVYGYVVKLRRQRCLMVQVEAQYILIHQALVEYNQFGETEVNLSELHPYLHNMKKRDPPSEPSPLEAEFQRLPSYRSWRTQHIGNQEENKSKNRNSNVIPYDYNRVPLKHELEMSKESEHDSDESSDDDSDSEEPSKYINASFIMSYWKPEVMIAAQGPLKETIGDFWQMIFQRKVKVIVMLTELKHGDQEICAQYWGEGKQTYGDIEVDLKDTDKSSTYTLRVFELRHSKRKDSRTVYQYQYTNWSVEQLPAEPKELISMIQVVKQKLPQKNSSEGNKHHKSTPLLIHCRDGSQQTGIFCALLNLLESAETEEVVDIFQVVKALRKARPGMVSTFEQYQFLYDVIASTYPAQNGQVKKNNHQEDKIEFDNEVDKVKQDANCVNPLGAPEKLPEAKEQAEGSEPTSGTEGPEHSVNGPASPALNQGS
Experiment: flow cytometry on T cells of human PBMC; biotin anti-human IgG + streptavidin PerCP-Cy5.5
Reported endpoint: % of T cells in the CD45RC gate at 1 µg/mL (%)
Numbers only, in %.

Prompt: Can you look up the measured % of T cells in the CD45RC gate at 1 µg/mL of Anti-45RC Variant A (antibody, human IgG1, kappa, V domains shown, also called humanized ABIS-45RC variant A) VH: QVQLVQSGAEVKKPGASVKVSCKASGYTFTNYYIGWVRQAPGQGLEWIGDIFPGGDYANSNEKFKGRVTLTADTSISTAYMELSRLRSDDTVVYYCVRRNFDYWGQGTLVTVSS VL: DIQLTQSPSFLSASVGDRVTITCSASSSVSYMHWFQQKPGKAPKLWIYNTSNLPSGVPSRFSGSGSGTEYTLTISSLQPEDFATYYCQQRSSYPLTFGGGTKVEIKR for me?
Response: 58.2
